Where do these numbers come from? They come from patent US10064853B2.

Biological target: ERp5 (Homo sapiens (Human))
Sequence (Q15084 20-440, species assumed): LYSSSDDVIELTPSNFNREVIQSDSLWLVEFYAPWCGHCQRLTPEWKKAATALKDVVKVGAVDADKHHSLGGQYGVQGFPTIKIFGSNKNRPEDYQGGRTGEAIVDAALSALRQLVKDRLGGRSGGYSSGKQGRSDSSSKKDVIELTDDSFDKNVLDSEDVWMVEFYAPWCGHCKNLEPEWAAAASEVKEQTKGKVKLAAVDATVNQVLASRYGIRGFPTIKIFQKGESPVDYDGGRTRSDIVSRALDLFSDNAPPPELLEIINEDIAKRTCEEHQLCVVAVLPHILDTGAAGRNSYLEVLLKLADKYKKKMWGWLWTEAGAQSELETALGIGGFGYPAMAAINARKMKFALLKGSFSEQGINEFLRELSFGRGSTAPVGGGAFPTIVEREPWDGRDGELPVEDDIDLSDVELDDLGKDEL
Assay: Insulin turbidimetric assay counter screen, ERp5
Type: biochemical
Settings: Table C; read-out: Specif. (ERp5, TR, TRR): ERp5
Procedure: PDI inhibitors were evaluated in an insulin turbidimetric assay to assess their ability to block the reductase activity of PDI. The assay measured the aggregation of insulin chains by monitoring absorbance at 650 nm as previously described in Jasuja, R. et al. Protein disulfide isomerase inhibitors constitute a new class of antithrombotic agents. […] When PDI is inhibited, there is a decrease in aggregation of insulin, and therefore a decrease in absorbance signal at 650 nm. […]
Reported IC50 values for the following molecules.

As a guide, the following entries are already answered.
CC(C)(C)OC(=O)C1(CCOc2ccccc2)CCN(Cc2ccc(O)c(Cl)c2)CC1 : > 30 µM
CCOC(=O)C1(CCOc2ccccc2)CCN(C(=O)c2ccc(O)c(Cl)c2)CC1 : > 30 µM
CC(C)OC(=O)C1(CCOc2ccccc2)CCN(Cc2ccc(O)c(Cl)c2)CC1 : > 30 µM

Continue with the molecule presented below.
## Task Supply measured IC50 of CCOC(=O)C1(CCOc2ccccc2)CCN(Cc2ccc(O)c(Cl)c2)CC1 in your reply.
## Result > 30 µM
